- protocol summary: Cytotoxicity against mouse peritoneal macrophages
- Assay type: cell-based, Macrophage
- experimental parameters: read-out: MIC
quantity kind: MCC (µg/mL)

• CC(=O)CC1(O)c2ccccc2-[n+]2ccc3c([nH]c4ccccc43)c21.[Cl-] (stereo unspecified) [HOMOFASCAPLYSIN A] = 30

====

# key: entry, value: MCC
- protocol summary: Cytotoxicity against rat L6 cells
- Format: cell-based
- experimental parameters: read-out: MIC
quantity kind: MCC (µg/mL)

• O=C1c2ccccc2-[n+]2ccc3c([nH]c4ccccc43)c21.[Cl-] [FASCAPLYSIN CHLORIDE] = 2.5
• CC(=O)CC1(O)c2ccccc2-[n+]2ccc3c([nH]c4ccccc43)c21.[Cl-] (configuration not stated) = 1.1

Values were extracted from ChEMBL document CHEMBL1142632.
